Please go through the items and note down their OD450.
target: BSA (UniProt P02769); assay: scFv ELISA
Sequence (P02769 25-607 limits assumed): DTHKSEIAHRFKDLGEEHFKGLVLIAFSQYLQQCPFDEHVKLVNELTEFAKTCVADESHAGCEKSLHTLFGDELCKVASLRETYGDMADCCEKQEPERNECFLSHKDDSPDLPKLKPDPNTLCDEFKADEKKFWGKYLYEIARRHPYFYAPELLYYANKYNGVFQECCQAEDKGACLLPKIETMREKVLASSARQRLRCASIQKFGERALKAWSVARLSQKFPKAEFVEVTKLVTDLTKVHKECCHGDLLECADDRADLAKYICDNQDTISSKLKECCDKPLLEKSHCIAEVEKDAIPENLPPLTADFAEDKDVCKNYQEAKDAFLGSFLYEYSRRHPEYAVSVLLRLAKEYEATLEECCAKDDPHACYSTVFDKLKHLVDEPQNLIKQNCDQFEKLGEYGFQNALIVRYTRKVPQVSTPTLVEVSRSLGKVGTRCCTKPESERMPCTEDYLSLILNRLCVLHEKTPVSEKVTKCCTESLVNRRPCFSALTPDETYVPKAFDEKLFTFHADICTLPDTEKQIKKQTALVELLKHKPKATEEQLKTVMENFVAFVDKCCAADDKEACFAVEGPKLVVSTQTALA

[[record]]
binder = "PcOxP_DB04_G06 (scFv, V domains shown, scFv in periplasmic extract) VH: EVQLLESGGGLVQPGGSLRLSCAASGFTFSDFYMEWVRQAPGKGLEWVAASRWKANDYTTEYADSVKGRFTISRDNSKNTLYLQMNSLRAEDTAVYYCARDYYESSYWYFDVWGQGTLVTVSS VL: DIQMTQSPSSLSASVGDRVTITCTASQSLYSSKHKVHYLAWYQQKPGKAPKLLIYGASNRYIGVPSRFSGSGSGTDFTLTISSLQPEDFATYYCAQFYVYPLTFGGGTKVEIK"
test_value = "0.11 OD450"

[[record]]
binder = "PcOxP_DB01_B03 (scFv, V domains shown, scFv in periplasmic extract) VH: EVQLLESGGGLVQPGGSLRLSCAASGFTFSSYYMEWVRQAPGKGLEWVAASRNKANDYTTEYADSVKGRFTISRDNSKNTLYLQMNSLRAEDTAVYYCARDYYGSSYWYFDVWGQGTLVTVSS VL: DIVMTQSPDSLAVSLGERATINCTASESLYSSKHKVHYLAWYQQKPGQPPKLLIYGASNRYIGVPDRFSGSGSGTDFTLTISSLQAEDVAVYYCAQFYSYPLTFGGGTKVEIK"
test_value = "0.08 OD450"


For the 2 binders below, give their OD450 values.
1. PcOxP_DB03_B10 (scFv, V domains shown, scFv in periplasmic extract) VH: EVQLLESGGGLVQPGGSLRLSCAASGFTFSDYYMEWVRQAPGKGLEWVAASRNKANDYNTEYADSVKGRFTISRDNSKNTLYLQMNSLRAEDTAVYYCARDYYGSSYWYFDVWGQGTLVTVSS VL: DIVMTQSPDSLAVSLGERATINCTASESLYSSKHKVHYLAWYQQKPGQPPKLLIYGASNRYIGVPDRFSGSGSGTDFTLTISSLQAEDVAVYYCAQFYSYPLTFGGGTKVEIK
2. PcOxP_DB04_D05 (scFv, V domains shown, scFv in periplasmic extract) VH: EVQLLESGGGLVQPGGSLRLSCAASGFTFSDYYMEWVRQAPGKGLEWVAASRNVANDYTTEYADSVKGRFTISRDNSKNTLYLQMNSLRAEDTAVYYCARDYYGSSYWYFDVWGQGTLVTVSS VL: DIVMTQSPDSLAVSLGERATINCTASTSLYSSKHKVHYLAWYQQKPGQPPKLLIYGASNRYIGVPDRFSGSGSGTDFTLTISSLQAEDVAVYYCAQFYSYPLTFGGGTKVEIK

**A:**
1: 0.08 OD450; 2: 0.08 OD450
